Cited source: patent US20260138988A1

This section presents compounds with their documented pEC50 values.
Tested on: 229E human corona virus (hCoV)
method: 229E live virus assay (MRC-5 cells, CPE, ATPlite readout)
Format: cell-based, hCoV-229E
cond: Human coronavirus 229E, MRC5, 144 h; hCoV-229E in MRC-5 cells, MOI 0.05, 6 days at 34° C., ATPlite, run in duplicate; read-out: 229E EC50
pEC50: −log10 of the molar value.

Query: Could you tell me which pEC50 is on file for C[C@H](NC(=O)C(F)(F)C(F)(F)F)C(=O)N(C)[C@@H](CC(C)(C)C)C(=O)N1C[C@]2(C[C@H]1C#N)C(=O)Nc1ccccc12 ?
Result: > 7.00

Query: Same thing, different compound: Cc1cc(C(=O)N[C@@H](C)C(=O)N(C)[C@@H](CC(C)C)C(=O)N2C[C@]3(C[C@H]2C#N)C(=O)Nc2ccccc23)no1
Result: > 7.00

Query: How about this compound: C[C@H](NC(=O)c1ccc(F)c(Cl)c1)C(=O)N(C)[C@@H](CC(C)(C)C)C(=O)N1C[C@]2(C[C@H]1C#N)C(=O)Nc1ccccc12
Result: > 7.00

Query: Quick one: CC(C)C[C@@H](C(=O)N1C[C@]2(C[C@H]1C#N)C(=O)Nc1ccccc12)N(C)C(=O)[C@H](C)NC(=O)C(F)(F)C(F)(F)F
Result: > 7.00

Query: Then C[C@H](NC(=O)c1ccc(F)c(F)c1)C(=O)N(C)[C@@H](CC(C)(C)C)C(=O)N1C[C@]2(C[C@H]1C#N)C(=O)Nc1ccccc12 ?
Result: > 7.00

Query: CC(C)C[C@@H](C(=O)N1C[C@]2(C[C@H]1C#N)C(=O)Nc1ccccc12)N(C)C(=O)[C@H](C)NC(=O)c1ccc(F)c(-c2ccc(F)cc2)c1 ?
Result: 6.00 to 7.00
